- SYSTEM_UNDER_TEST: Amine oxidase [flavin-containing] A (Homo sapiens)
- Sequence (P21397 whole entry): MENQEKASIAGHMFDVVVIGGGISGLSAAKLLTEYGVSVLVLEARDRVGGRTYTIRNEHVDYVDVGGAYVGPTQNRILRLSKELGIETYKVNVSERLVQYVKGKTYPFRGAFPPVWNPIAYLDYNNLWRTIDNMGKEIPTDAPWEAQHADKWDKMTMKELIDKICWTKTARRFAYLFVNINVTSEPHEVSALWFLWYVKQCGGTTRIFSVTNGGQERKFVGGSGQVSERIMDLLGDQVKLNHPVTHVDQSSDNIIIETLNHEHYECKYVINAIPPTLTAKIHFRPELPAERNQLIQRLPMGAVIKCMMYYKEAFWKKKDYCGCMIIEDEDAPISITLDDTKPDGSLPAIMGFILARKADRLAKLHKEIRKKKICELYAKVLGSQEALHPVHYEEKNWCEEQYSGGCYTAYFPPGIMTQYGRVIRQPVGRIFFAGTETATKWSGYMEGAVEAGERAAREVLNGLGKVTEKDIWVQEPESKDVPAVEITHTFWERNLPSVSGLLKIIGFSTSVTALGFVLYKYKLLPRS
- EXPERIMENT_SUMMARY: Inhibition of human recombinant MAOA expressed in microsomes of baculovirus-infected insect cell using kynuramine as substrate preincubated for 20 mins followed by protein addition measured after 30 mins by fluorescence assay
pIC50: −log10 of the molar value.
pIC50 overview

{"COMPOUND": "Cc1c(C)c2ccc(OCC3CCCN(Cc4ccc(F)cc4)C3)cc2oc1=O (racemic)", "pIC50": 5.95}
{"COMPOUND": "Cc1c(C)c2ccc(OC3CCN(CC(=O)c4ccccc4)CC3)cc2oc1=O", "pIC50": 5.71}
{"COMPOUND": "Cc1c(C)c2ccc(OCCCCN3CCc4ccccc4C3)cc2oc1=O", "pIC50": 5.65}
{"COMPOUND": "Cc1c(C)c2ccc(OCC3CCN(Cc4cccc(Cl)c4)CC3)cc2oc1=O", "pIC50": 6.15}
{"COMPOUND": "Cc1c(C)c2ccc(OCC3CCCN(Cc4ccc(C#N)cc4)C3)cc2oc1=O (racemic)", "pIC50": 5.35}
{"COMPOUND": "Cc1c(C)c2ccc(OCC3CCN(Cc4ccc(C#N)cc4)CC3)cc2oc1=O", "pIC50": 5.00}
{"COMPOUND": "Cc1c(C)c2ccc(OC3CCN(C)CC3)cc2oc1=O", "pIC50": 4.93}
{"COMPOUND": "COc1ccc(CN2CCCC(COc3ccc4c(C)c(C)c(=O)oc4c3)C2)cc1OC (racemic)", "pIC50": 5.76}
{"COMPOUND": "Cc1c(C)c2ccc(OCC3CCCN(Cc4ccc(Cl)cc4)C3)cc2oc1=O (racemic)", "pIC50": 6.09}
{"COMPOUND": "Cc1c(C)c2ccc(OCC3CCCN(Cc4ccccc4)C3)cc2oc1=O.Cl (racemic)", "pIC50": 5.55}
{"COMPOUND": "Cc1c(C)c2ccc(OCC3CCCN(Cc4cccc(Cl)c4)C3)cc2oc1=O (racemic)", "pIC50": 6.01}
{"COMPOUND": "Cc1c(C)c2ccc(OC3CCN(Cc4ccc(C#N)cc4)CC3)cc2oc1=O", "pIC50": 5.89}
{"COMPOUND": "Cc1c(C)c2ccc(OCC3CCCN(Cc4ccc(S(C)(=O)=O)cc4)C3)cc2oc1=O (racemic)", "pIC50": 6.68}
{"COMPOUND": "Cc1c(C)c2ccc(OC3CCN(Cc4ccccc4)CC3)cc2oc1=O", "pIC50": 5.44}
{"COMPOUND": "Cc1c(C)c2ccc(OC3CCN(CCc4ccccc4)CC3)cc2oc1=O", "pIC50": 4.91}
{"COMPOUND": "Cc1c(C)c2ccc(OCC3CCCN(Cc4ccccc4)C3)cc2oc1=O (stereo in doubt; (+)-5b)", "pIC50": 5.42}
{"COMPOUND": "Cc1c(C)c2ccc(OCC3CCN(C)CC3)cc2oc1=O", "pIC50": 4.78}
{"COMPOUND": "CCCCN1CCC(Oc2ccc3c(C)c(C)c(=O)oc3c2)CC1", "pIC50": 4.62}

---

- EXPERIMENT_SUMMARY: Apparent permeability across basolateral to apical side in MDCK2-MDR1 cells at 5 to 75 uM by UV-visible spectroscopic method
- Assay type: ADME, cell-based, Canis lupus familiaris
- CONDITION_CONTEXT: dog, MDCK-MDR1
Papp B→A at up to 75 µM overview

{"COMPOUND": "Cc1c(C)c2ccc(OCC3CCCN(Cc4ccccc4)C3)cc2oc1=O.Cl (racemic)", "Papp B→A at up to 75 µM (×10⁻⁶ cm/s)": 14.8}
{"COMPOUND": "Cc1c(C)c2ccc(OCC3CCCN(C)C3)cc2oc1=O.Cl (racemic)", "Papp B→A at up to 75 µM (×10⁻⁶ cm/s)": 20.2}
{"COMPOUND": "Cc1c(C)c2ccc(OCC3CCCN(Cc4cccc(Br)c4)C3)cc2oc1=O.Cl (racemic)", "Papp B→A at up to 75 µM (×10⁻⁶ cm/s)": 2.16}

---

pIC50 overview
- SYSTEM_UNDER_TEST: Amine oxidase [flavin-containing] A (Homo sapiens)
- EXPERIMENT_SUMMARY: Inhibition of human recombinant MAOA expressed in microsomes of baculovirus-infected insect cell using kynuramine as substrate preincubated for 20 mins followed by protein addition measured after 30 mins by fluorescence assay
pIC50: −log10 of the molar value.
QUANTITY_MEASURED: pIC50

{"MOLECULE": "Cc1c(C)c2ccc(OC3CCN(Cc4ccc(Cl)cc4)CC3)cc2oc1=O", "RECORDED_VALUE": 5.80}
{"MOLECULE": "Cc1c(C)c2ccc(OCC3CCCN(Cc4cccc(Br)c4)C3)cc2oc1=O.Cl (racemic)", "RECORDED_VALUE": 6.09}
{"MOLECULE": "Cc1c(C)c2ccc(OCC3CCCN(Cc4ccccc4)C3)cc2oc1=O (single isomer, unassigned; (-))", "RECORDED_VALUE": 5.64}
{"MOLECULE": "Cc1c(C)c2ccc(OCC3CCN(Cc4ccccc4)CC3)cc2oc1=O.Cl", "RECORDED_VALUE": 5.62}
{"MOLECULE": "Cc1c(C)c2ccc(OCCCN3CCc4ccccc4C3)cc2oc1=O", "RECORDED_VALUE": 5.57}

---

- SYSTEM_UNDER_TEST: Amine oxidase [flavin-containing] B (Homo sapiens, UniProt P27338)
- Sequence (P27338 whole entry): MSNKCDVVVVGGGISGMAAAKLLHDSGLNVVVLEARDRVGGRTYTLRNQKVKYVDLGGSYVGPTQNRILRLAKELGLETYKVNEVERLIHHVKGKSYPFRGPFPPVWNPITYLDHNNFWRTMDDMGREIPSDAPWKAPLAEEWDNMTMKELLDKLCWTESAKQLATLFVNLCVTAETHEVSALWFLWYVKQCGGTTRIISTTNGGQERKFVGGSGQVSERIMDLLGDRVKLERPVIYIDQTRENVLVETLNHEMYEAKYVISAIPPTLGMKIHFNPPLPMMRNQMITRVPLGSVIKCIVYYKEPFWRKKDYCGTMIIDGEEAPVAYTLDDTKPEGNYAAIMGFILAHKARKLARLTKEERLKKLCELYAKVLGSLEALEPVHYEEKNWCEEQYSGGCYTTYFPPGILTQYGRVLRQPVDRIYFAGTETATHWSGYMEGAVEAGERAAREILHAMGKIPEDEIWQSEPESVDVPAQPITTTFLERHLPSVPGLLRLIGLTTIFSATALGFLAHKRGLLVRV
- EXPERIMENT_SUMMARY: Inhibition of human recombinant MAOB expressed in microsomes of baculovirus-infected insect cell using kynuramine as substrate preincubated for 20 mins followed by protein addition measured after 30 mins by fluorescence assay
pIC50: −log10 of the molar value.

{"COMPOUND": "Cc1c(C)c2ccc(OCC3CCCN(Cc4ccc(F)cc4)C3)cc2oc1=O (racemic)", "SYSTEM_UNDER_TEST": "Amine oxidase [flavin-containing] B (Homo sapiens, UniProt P27338)", "pIC50": 6.79}
{"COMPOUND": "Cc1c(C)c2ccc(OC3CCN(C)CC3)cc2oc1=O", "SYSTEM_UNDER_TEST": "Amine oxidase [flavin-containing] B (Homo sapiens, UniProt P27338)", "pIC50": 6.56}
{"COMPOUND": "Cc1c(C)c2ccc(OC3CCN(Cc4cccc(Cl)c4)CC3)cc2oc1=O", "SYSTEM_UNDER_TEST": "Amine oxidase [flavin-containing] B (Homo sapiens, UniProt P27338)", "pIC50": 6.55}
{"COMPOUND": "Cc1c(C)c2ccc(OCC3CCCN(Cc4cccc(Br)c4)C3)cc2oc1=O.Cl (racemic)", "SYSTEM_UNDER_TEST": "Amine oxidase [flavin-containing] B (Homo sapiens, UniProt P27338)", "pIC50": 6.96}
{"COMPOUND": "Cc1c(C)c2ccc(OC3CCN(Cc4ccc(C#N)cc4)CC3)cc2oc1=O", "SYSTEM_UNDER_TEST": "Amine oxidase [flavin-containing] B (Homo sapiens, UniProt P27338)", "pIC50": 6.18}

---

Ratio IC50 overview
- Species on record: Homo sapiens
- EXPERIMENT_SUMMARY: Selectivity index, ratio of IC50 for human recombinant MAOA to IC50 for human recombinant MAOB
QUANTITY_MEASURED: Ratio IC50

{"COMPOUND": "Cc1c(C)c2ccc(OC3CCN(Cc4ccc(C#N)cc4)CC3)cc2oc1=O", "RECORDED_VALUE": 2}
{"COMPOUND": "Cc1c(C)c2ccc(OC3CCN(Cc4ccc(Cl)cc4)CC3)cc2oc1=O", "RECORDED_VALUE": 2}
{"COMPOUND": "Cc1c(C)c2ccc(OCC3CCCN(Cc4ccc(C#N)cc4)C3)cc2oc1=O (racemic)", "RECORDED_VALUE": 133}
{"COMPOUND": "Cc1c(C)c2ccc(OCC3CCCN(Cc4cccc(Br)c4)C3)cc2oc1=O (single isomer, unassigned; (+))", "RECORDED_VALUE": 21}

---

- SYSTEM_UNDER_TEST: Cholinesterase (Equus caballus, UniProt P81908)
- Sequence (P81908 whole entry): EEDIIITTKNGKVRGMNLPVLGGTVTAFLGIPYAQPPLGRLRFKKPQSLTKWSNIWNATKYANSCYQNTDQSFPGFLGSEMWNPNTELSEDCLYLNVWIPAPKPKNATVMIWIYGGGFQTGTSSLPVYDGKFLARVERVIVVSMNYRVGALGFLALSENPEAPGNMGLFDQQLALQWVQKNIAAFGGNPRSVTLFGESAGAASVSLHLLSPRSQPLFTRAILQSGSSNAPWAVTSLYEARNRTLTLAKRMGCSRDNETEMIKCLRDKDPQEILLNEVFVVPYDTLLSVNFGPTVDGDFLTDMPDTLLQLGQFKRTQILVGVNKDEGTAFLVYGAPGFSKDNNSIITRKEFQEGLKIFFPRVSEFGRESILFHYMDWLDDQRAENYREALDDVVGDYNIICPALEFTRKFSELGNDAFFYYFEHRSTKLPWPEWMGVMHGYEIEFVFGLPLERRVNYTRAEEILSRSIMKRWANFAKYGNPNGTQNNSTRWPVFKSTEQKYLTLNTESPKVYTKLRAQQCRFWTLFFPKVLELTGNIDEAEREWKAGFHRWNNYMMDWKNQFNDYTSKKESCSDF
- EXPERIMENT_SUMMARY: Inhibition of equine serum BChE using butyrylthiocholine iodide as substrate preincubated for 20 mins followed by substrate addition measured for 5 mins by spectrophotometric Ellman's method
pIC50: −log10 of the molar value.
pIC50 overview

{"COMPOUND": "Cc1c(C)c2ccc(OC3CCN(CCc4ccccc4)CC3)cc2oc1=O", "SYSTEM_UNDER_TEST": "Cholinesterase (Equus caballus, UniProt P81908)", "pIC50": 5.75}
{"COMPOUND": "COc1ccc(CN2CCCC(COc3ccc4c(C)c(C)c(=O)oc4c3)C2)cc1OC (racemic)", "SYSTEM_UNDER_TEST": "Cholinesterase (Equus caballus, UniProt P81908)", "pIC50": 5.22}
{"COMPOUND": "Cc1c(C)c2ccc(OC3CCN(Cc4ccccc4)CC3)cc2oc1=O", "SYSTEM_UNDER_TEST": "Cholinesterase (Equus caballus, UniProt P81908)", "pIC50": 5.02}
{"COMPOUND": "Cc1c(C)c2ccc(OCC3CCCN(Cc4ccccc4)C3)cc2oc1=O.Cl (racemic)", "SYSTEM_UNDER_TEST": "Cholinesterase (Equus caballus, UniProt P81908)", "pIC50": 5.47}
{"COMPOUND": "Cc1c(C)c2ccc(OCCCCN3CCc4ccccc4C3)cc2oc1=O", "SYSTEM_UNDER_TEST": "Cholinesterase (Equus caballus, UniProt P81908)", "pIC50": 5.58}
{"COMPOUND": "Cc1c(C)c2ccc(OCC3CCCN(Cc4ccc(F)cc4)C3)cc2oc1=O (racemic)", "SYSTEM_UNDER_TEST": "Cholinesterase (Equus caballus, UniProt P81908)", "pIC50": 5.43}
{"COMPOUND": "Cc1c(C)c2ccc(OCC3CCCN(Cc4cccc(Cl)c4)C3)cc2oc1=O (racemic)", "SYSTEM_UNDER_TEST": "Cholinesterase (Equus caballus, UniProt P81908)", "pIC50": 5.33}
{"COMPOUND": "Cc1c(C)c2ccc(OCC3CCCN(Cc4ccccc4)C3)cc2oc1=O (stereo in doubt; (+)-5b)", "SYSTEM_UNDER_TEST": "Cholinesterase (Equus caballus, UniProt P81908)", "pIC50": 5.54}
{"COMPOUND": "Cc1c(C)c2ccc(OCC3CCCN(Cc4ccc(Cl)cc4)C3)cc2oc1=O (racemic)", "SYSTEM_UNDER_TEST": "Cholinesterase (Equus caballus, UniProt P81908)", "pIC50": 5.23}
{"COMPOUND": "Cc1c(C)c2ccc(OCC3CCN(Cc4ccccc4)CC3)cc2oc1=O.Cl", "SYSTEM_UNDER_TEST": "Cholinesterase (Equus caballus, UniProt P81908)", "pIC50": 5.33}
{"COMPOUND": "Cc1c(C)c2ccc(OCCCN3CCc4ccccc4C3)cc2oc1=O", "SYSTEM_UNDER_TEST": "Cholinesterase (Equus caballus, UniProt P81908)", "pIC50": 6.02}
{"COMPOUND": "Cc1c(C)c2ccc(OCC3CCN(Cc4cccc(Cl)c4)CC3)cc2oc1=O", "SYSTEM_UNDER_TEST": "Cholinesterase (Equus caballus, UniProt P81908)", "pIC50": 5.22}
{"COMPOUND": "Cc1c(C)c2ccc(OCC3CCCN(Cc4ccccc4)C3)cc2oc1=O (single isomer, unassigned; (-))", "SYSTEM_UNDER_TEST": "Cholinesterase (Equus caballus, UniProt P81908)", "pIC50": 5.09}
